tested on: U2OS; assay: normalized growth rate inhibition value (GR) relative to untreated cells (GR value (dimensionless, 1 = untreated growth)); higher = less growth inhibition; details: 0.0100433 µM; 72 h
Below, each entry is listed with its recorded normalized growth rate inhibition value.
Reply with just the number.

For orientation, consider the following solved cases.
compound=Cc1nc(NC(=O)N2CCC[C@H]2C(N)=O)sc1-c1ccnc(C(C)(C)C(F)(F)F)c1 reported_metric="normalized growth rate inhibition value" measurement=0.922
compound=CC(C)NC[C@@H](C(=O)N1CCN(c2ncnc3c2[C@H](C)C[C@H]3O)CC1)c1ccc(Cl)cc1 reported_metric="normalized growth rate inhibition value" measurement=1.14

Entry Cc1c(N)nc([C@H](CC(N)=O)NC[C@H](N)C(N)=O)nc1C(=O)N[C@H](C(=O)N[C@H](C)[C@@H](O)[C@H](C)C(=O)N[C@H](C(=O)NCCc1nc(-c2nc(C(=O)NCCC[S+](C)C)cs2)cs1)[C@@H](C)O)[C@@H](OC1OC(CO)C(O)C(O)C1OC1OC(CO)C(O)C(OC(N)=O)C1O)c1cnc[nH]1 (some centres not stated) ; normalized growth rate inhibition value = 1.11

Looking up O=C1NC(=O)[C@@H](c2cn3c4c(cccc24)CCC3)[C@@H]1c1c[nH]c2ccccc12 [Tivantinib] , I found its normalized growth rate inhibition value recorded as 0.977

FYI, the data here is from the supplement of paper PMC7394473.
